Listing of recorded % Inh by entry.
System: soluble epoxide hydrolase (sEH)
Assay: Fluorescent assay for mouse and human soluble epoxide hydrolase (CMNPC substrate)
Format: biochemical
Conditions: inhibitor conc. 50 nM
Reported endpoint: % Inh (%)

>>> measurement("O=C(CC12CC3CC(CC(C3)C1)C2)NC1CCCC(OCCCN2CCOCC2)C1 (stereo not drawn) [Compound 49]")
79
>>> measurement("O=C(NC1CCCC(OCCCN2CCOCC2)C1)NC12CC3CC(CC(C3)C1)C2 (stereo not drawn) [Compound 48]")
94
>>> measurement("O=C(CC12CC3CC(CC(C3)C1)C2)Nc1cccc(OCCCN2CCOCC2)c1 [Compound 43]")
93
>>> measurement("O=C(Nc1ccc(Oc2ccccc2)cc1)Nc1ccc(C(F)(F)F)cc1 [Compound 39]")
90
>>> measurement("O=C(Nc1ccc(Cl)cc1)Nc1ccc(OCCCN2CCOCC2)cc1 [Compound 26]")
88
>>> measurement("O=C(Nc1ccc(OCCCN2CCOCC2)cc1)NC1CCCCC1 [Compound 45]")
79
>>> measurement("O=C(CC1CCCCC1)Nc1cccc(OCCCN2CCOCC2)c1 [Compound 51]")
61
>>> measurement("O=C(Nc1cccc(OCCCN2CCOCC2)c1)NC1CCCCC1 [Compound 41]")
96
>>> measurement("O=C(Nc1ccc(C(F)(F)F)cc1)Nc1cccc(OCc2ccccc2)c1 [Compound 37]")
99
